# Test system: EKVX NSCLC
# Method Description: NCI-60 one-dose screen, 48 h
# Study Conditions: 10 µM unless noted
The panel holds about 83,000 compounds, 20% with a hit somewhere; the sample as a whole holds those more often. Active and inactive are the calls of the source. How the source made its calls: active means growth percent below 10; inactive means the rest.
Write down the outcome that applies. Available outcomes: yes for active, no for inactive

| Compound | Class |
| --- | --- |
| C/C(=C\c1ccn(-c2ccc(N)cc2)n1)[C@@H]1C[C@@H]2O[C@]2(C)CCC[C@H](C)[C@H](O)[C@@H](C)C(=O)C(C)(C)[C@@H](O)CC(=O)O1 | no |
| COc1ccc2c(c1)c(-c1nc(-c3c[nH]c4ncccc34)cs1)cn2CCCCN1CCCCC1 | no |
| COc1ccc(N(CC(=O)NCCC[Te]c2ccccc2)C(=O)CCSC2=C(C)C(=O)c3ccccc3C2=O)cc1 | yes |
| COC1CC2c3ccccc3C1C(C)=[N+]2C (stereo not drawn) | no |
| O=C1N[C@@H]2[C@@H](O)[C@@H](O)[C@H](O)C[C@H]2c2cc3c(c(O)c21)OCO3 | yes |
| CC(=O)O[C@H](C[C@H](C(C)C)N(C)C(=O)[C@@H](NC(=O)[C@H]1CCCCN1C)C(C)C)c1nc(C(=O)NC2CCC(C(=O)O)CC2)cs1 (stereo partly drawn) | no |
| CC(=O)Nc1ccc(NC(=O)c2ccc([As](O)O)cc2)cc1 | no |
| C#Cc1ccc2c(c1)C(c1ccccc1F)=NCC(=O)N2C | no |
| CN1C(=O)C(=Cc2cn(Cc3ccccc3)c3ccccc23)C(=O)N(C)C1=O | no |
| COc1ccc(NC([Se])=NC23CC4CC(CC(C4)C2)C3)cc1 | yes |

Given C/C(CC(C)(C)N1CC1)=N\NC(=O)Nc1cccc2ccccc12 , state the outcome it received in this test.
no

Give the logged outcome of this assay for the following compound: O=C(CCl)c1ccc([N+](=O)[O-])o1
no

Which outcome did this test record for the compound CC[S][Hg][Cl] ?
no

GET /call?item= O=[N+]([O-])CC(O)C(Cl)(Cl)Cl (stereo not drawn) returns the recorded outcome of this test.
no

In this assay, the call recorded for CC1CCCC(C[N+](C)(C)C)C1=O (stereo not drawn) was what?
no

Would you mind telling me which call this test gave NC(=S)c1cn(C2OC(CO)C(O)C2O)c2ncnc(N)c12 (stereo not drawn) ?
yes

What outcome does the record of this test show for O=C(CC1(O)C(=O)N(Cc2ccccc2)c2ccc(F)cc21)c1ccc(C(=O)NCC2CCC3(CC2)OOC2(CCCCC2)OO3)cc1 (stereo not drawn) ?
yes

# fetch the recorded call for O=C1C2CC=CCC2C(=O)N1SC(Cl)(Cl)Cl (stereo not drawn) here
no

###

# System: CAKI-1 renal
# Method Description: NCI-60 one-dose screen, 48 h (100 = growth as untreated, 0 = no growth, -100 = all killed)
# Study Conditions: 10 µM unless noted
The panel holds about 83,000 compounds, 20% with a hit somewhere; the sample as a whole holds those more often.
Assign Y whenever growth does not fall below 20%; assign N whenever it does.

| Molecule | Class |
| --- | --- |
| COc1cc2c(cc1OCc1ccccc1)C(CC(C)C)=[N+](C)CC2 | Y |
| COC(=O)[C@@H](C)C[C@H](Cc1ccccc1)NC(=O)c1csc([C@@H](C[C@H](C(C)C)N(C)C(=O)[C@@H](NC(=O)[C@H]2CCCCN2C)C2CCCCC2)OC(C)=O)n1 | N |

Quick check, growth >= 20%? COc1cccc2c1c(C(=O)C(=O)Nc1ccn[nH]1)cn2Cc1ccc(F)cc1
Y

hey, is growth for this one >= 20%? CCC1CN1CCCCN1CC1CC (stereo not drawn)
Y

Has ClCCN(CCCl)c1ccc(/C=N\N=C\c2ccc(N(CCCl)CCCl)cc2)cc1 a recorded growth greater than or equal to 20%?
N

Decide: growth of CNC12C3C4C1C1C2C3C41C(=O)N[C@H](C(=O)N(C)[C@H](C[C@@H](OC(C)=O)c1nc(C(=O)N[C@@H](Cc2ccccc2)C[C@H](C)C(=O)OC)cs1)C(C)C)C1CC1 (stereo partly drawn) >= 20%?
Y

Assess whether reported growth for CCc1ccccc1[C@@H]1C[C@]2(C)CCO[C@@H]2OO1 sits at 20% or higher.
Y

Is growth at least 20%? Consider O=C(CCCCCCC(=O)Nc1ccc(N(CCCl)CCCl)cc1)NO
Y
